Molecular target: HLA-A*02:01
Assay: IEDB peptide-MHC binding, purified MHC/competitive/radioactivity; bounds were set here for any values at or beyond the usual limits of such assays
Conditions: source organism: Homo sapiens
property: IC50 (nM)

* KIWEELSML | 167
* GIMIGVLVGV | 36.8

A: HLFIYATCLGL
B: LLGICLTSTV
# returns the entry with the larger IC50; inputs A and B Bench note: the answer is the label of the chosen record.
B
(B: 102 nM, A: 54.3 nM)

----------
Target: HLA-A*02:01
Test: IEDB peptide-MHC binding, purified MHC/competitive/radioactivity; bounds were set here for any values at or beyond the usual limits of such assays
Conditions: source organism: Homo sapiens
pIC50: −log10 of the molar value.
property: pIC50

A: ALCRWGLLLA
B: KVAELVHFLL
C: KMVELVHFL
Order the records, beginning with the lowest pIC50 and ending with the highest. Please express your ranking as an ordered list of the labels.
A, B, C
(A: 6.86, B: 7.25, C: 8.01)
